B1: STK38L (parent)
chain: FLPGGDMMTLLMKKDTLTEEETQF

- Variants of: B1
- TEST_NAME: protein stability index of a GFP-peptide fusion (GPS, HEK-293T) (PSI 1-6); higher = more stable;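 further: lentivirally expressed fusions sorted by FACS into six bins by GFP to DsRed ratio, PSI derived from sequencing read proportions per bin multiplied by bin number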
- ASSAY_SETUP: c terminus: a fixed tail appended
# protein stability index values compiled below
Answer using only a numeral; do not append any unit.

These recorded examples may help you get a feel for the data.
[[record]]
mutation_id = "G4K"
endpoint_result = 3.27

[[record]]
mutation_id = "K14E"
endpoint_result = 2.88

[[record]]
mutation_id = "M7H"
endpoint_result = 3.72

[[record]]
mutation_id = "M7Y"
endpoint_result = 2.81

[[record]]
mutation_id = "D6E"
endpoint_result = 2.02


Task: Look at this variant and give its reported protein stability index. P3C
Output: 2.17

Task: Further, for D6I ?
Output: 1.85

Task: Further, for T16V ?
Output: 2.33

Task: Further, for K13G ?
Output: 2.3

Task: Further, for L11C ?
Output: 2.63

Task: Further, for E19P ?
Output: 2.11

Task: Further, for T18H ?
Output: 2.05

Task: Further, for G5D ?
Output: 4.23

Task: Further, for D6R ?
Output: 2.18

src = the supplement of paper PMC10567573
